Exercise: state measured EC50 for each of the compounds provided.
- procedure.summary: MEKK2 PB1 heterodimer disruption – biochemical, TR-FRET, Eu and Cy5 interference panels, dose response (AID 463089)
- condition.parameters: TR-FRET MEKK2-MEK5 PB1 binding, Eu fluorescence 620 nm counterscreen

Problem: What EC50 value was documented for this compound, CCNc1ccc2noc3c2c1C(=O)c1ccccc1-3 ?
Solution: 1.6 µM

Problem: What EC50 value was documented for this compound, Nc1cc2nc[nH]c2cc1N ?
Solution: 1.5 µM

Problem: What EC50 value was documented for this compound, CCN1/C(=C/C(C)=C/c2sc3ccccc3[n+]2CC)Sc2ccccc21 ?
Solution: 2 µM

Problem: What EC50 value was documented for this compound, CCC(=C/c1sc2ccc3ccccc3c2[n+]1C)/C=C1\Sc2ccc3ccccc3c2N1C ?
Solution: 1.9 µM

----------
Exercise: state measured pEC50 for each of the compounds provided.
- assayed.target: Mitogen-activated protein kinase kinase kinase 2 (Homo sapiens) (UniProt Q9Y2U5)
- Sequence (Q9Y2U5 whole entry, looked up): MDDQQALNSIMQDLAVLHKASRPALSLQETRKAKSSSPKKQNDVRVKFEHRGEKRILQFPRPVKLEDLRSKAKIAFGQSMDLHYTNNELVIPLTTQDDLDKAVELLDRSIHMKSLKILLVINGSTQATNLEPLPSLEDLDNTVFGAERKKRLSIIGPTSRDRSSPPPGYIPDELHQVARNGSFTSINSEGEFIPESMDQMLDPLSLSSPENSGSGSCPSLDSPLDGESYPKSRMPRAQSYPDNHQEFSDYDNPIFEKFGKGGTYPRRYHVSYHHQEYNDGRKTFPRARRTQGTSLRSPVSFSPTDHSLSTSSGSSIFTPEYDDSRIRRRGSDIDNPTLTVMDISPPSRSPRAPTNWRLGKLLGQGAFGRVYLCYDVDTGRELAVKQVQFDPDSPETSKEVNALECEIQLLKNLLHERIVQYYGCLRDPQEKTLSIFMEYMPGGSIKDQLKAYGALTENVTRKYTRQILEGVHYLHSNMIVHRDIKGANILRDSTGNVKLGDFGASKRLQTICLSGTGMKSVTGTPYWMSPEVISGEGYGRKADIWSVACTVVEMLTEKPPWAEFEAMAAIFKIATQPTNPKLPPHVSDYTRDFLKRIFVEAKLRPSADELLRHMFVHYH
- procedure.summary: MEKK2 PB1 heterodimer disruption – biochemical, TR-FRET, Eu and Cy5 interference panels, dose response (AID 463089)
- condition.parameters: TR-FRET MEKK2-MEK5 PB1 binding, TR-FRET binding assay
Scale for pEC50: -log10 of concentration given in mol/L; no unit attached.

Problem: Query pEC50 on Mitogen-activated protein kinase kinase kinase 2 (Homo sapiens) (UniProt Q9Y2U5) for CCNc1ccc2noc3c2c1C(=O)c1ccccc1-3
Solution: 5.46

Problem: Query pEC50 on Mitogen-activated protein kinase kinase kinase 2 (Homo sapiens) (UniProt Q9Y2U5) for Nc1cc2nc[nH]c2cc1N
Solution: 5.70

Problem: Query pEC50 on Mitogen-activated protein kinase kinase kinase 2 (Homo sapiens) (UniProt Q9Y2U5) for COc1cccc(OC)c1-c1nn2c(-c3cc(-c4ccccc4)n[nH]3)nnc2s1
Solution: 5.66

----------
- procedure.summary: MEKK2 PB1 heterodimer disruption – biochemical, TR-FRET, Eu and Cy5 interference panels, dose response (AID 463089)
- condition.parameters: TR-FRET MEKK2-MEK5 PB1 binding, Cy5 fluorescence 665 nm counterscreen
recorded.endpoint: EC50

Problem: What EC50 value was documented for this compound, CCC(=C/c1sc2ccc3ccccc3c2[n+]1C)/C=C1\Sc2ccc3ccccc3c2N1C ?
Solution: 4.1 µM
